# Tested on: OVCAR-3
# Procedure Summary: Cytotoxicity against human OVCAR3 cells
# Assay type: functional
# Assay Setup: read-out: pTGI (converted)
Below, each entry is listed with its recorded TGI.
Numbers only; they are read as µM.

Example compounds with recorded TGI:
>>> obs_value("CC1=C([Se]CC(OC(=O)[C@@H](CO)NC(=O)OC(C)(C)C)C(=O)NC(C)(C)C)C(=O)c2ccccc2C1=O (some centres undefined)")
3.16
>>> obs_value("CC1=C(SCCC(=O)OC(C[Se]C2=C(C)C(=O)c3ccccc3C2=O)C(=O)NCCCCCC(=O)OCc2ccccc2)C(=O)c2ccccc2C1=O (centres undefined)")
18.2
>>> obs_value("CC1=C([Se]CC(OC(=O)[C@@H](CO)NC(=O)OC(C)(C)C)C(=O)NCCCCCC(=O)OCc2ccccc2)C(=O)c2ccccc2C1=O (some centres undefined)")
3.16

Now consider a different compound.
// sample CC1=C([Se]CC(OC(=O)[C@@H](CSSC(C)(C)C)NC(=O)C(C)(C)C)C(=O)NCCCCCC(=O)OCc2ccccc2)C(=O)c2ccccc2C1=O (some centres undefined) , its TGI was 3.39

----------
Below, each entry is listed with its recorded LC50 (concentration killing 50% of cells).
# Test system: IGROV-1
# Procedure Summary: Cytotoxicity against human IGROV1 cells
# Assay type: functional

Record CC1=C([Se]CC(OC(=O)[C@@H](CSSC(C)(C)C)NC(=O)C(C)(C)C)C(=O)NCCCCCC(=O)OCc2ccccc2)C(=O)c2ccccc2C1=O (some centres undefined) , field LC50 (concentration killing 50% of cells): 7.08 µM

The reported value for CC1=C([Se]CC(OC(=O)[C@@H](CO)NC(=O)OC(C)(C)C)C(=O)NC(C)(C)C)C(=O)c2ccccc2C1=O (some centres undefined) in terms of LC50 (concentration killing 50% of cells) is 6.46 µM

Consider CC1=C(SCCC(=O)OC(C[Se]C2=C(C)C(=O)c3ccccc3C2=O)C(=O)NCCCCCC(=O)OCc2ccccc2)C(=O)c2ccccc2C1=O (centres undefined) . Its measured LC50 (concentration killing 50% of cells) is 53.7 µM

// CC1=C([Se]CC(OC(=O)[C@@H](CO)NC(=O)OC(C)(C)C)C(=O)NCCCCCC(=O)OCc2ccccc2)C(=O)c2ccccc2C1=O (some centres undefined) : LC50 (concentration killing 50% of cells) value = 6.31 µM

----------
# Procedure Summary: Cytotoxicity against human PHF cells after 24 hrs by MTT assay
# Format: cell-based
pIC50 values by entry
As a rule, pIC50 stands for the negative log10 of the concentration, concentration in M.

Known pIC50 results, listed for orientation:
>>> obs_value("CC1=C([Se]CC(OC(=O)CC[Se]c2ccccc2)C(=O)NCCCCCC(=O)OCc2ccccc2)C(=O)c2ccccc2C1=O (stereo unspecified)")
5.22
>>> obs_value("CC1=C(SCCC(=O)OC(C[Se]c2ccccc2)C(=O)NCCCCCC(=O)OCc2ccccc2)C(=O)c2ccccc2C1=O (stereo unspecified)")
4.30
>>> obs_value("CC1=C([Se]CC(OC(=O)CNC(=O)OC(C)(C)C)C(=O)NCCCCCC(=O)OCc2ccccc2)C(=O)c2ccccc2C1=O (stereo unspecified)")
5.22

// next item, pIC50 requested
Per the record, CC1=C(SCCC(=O)OC(C[Se]c2ccccc2)C(=O)NC(C)(C)C)C(=O)c2ccccc2C1=O (stereo unspecified) has pIC50 of 4.59
